Hello, the source for this data is paper PMC4072508, in case you need it.

Biological target: Bcl-w (Homo sapiens, UniProt Q92843, Q133R)
Construct: myc-Bcl-w SPOT array & FP; made in house
Sequence (Q92843 with tags, fused parts or gaps Q133R): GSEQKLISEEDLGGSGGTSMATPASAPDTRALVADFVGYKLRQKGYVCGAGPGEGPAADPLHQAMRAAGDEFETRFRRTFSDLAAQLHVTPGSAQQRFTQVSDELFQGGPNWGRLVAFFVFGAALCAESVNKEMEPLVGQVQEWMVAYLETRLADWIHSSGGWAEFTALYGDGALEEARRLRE
Assay: Fluorescence polarization direct binding
Conditions: FP direct binding; 10 nM FAM-labeled peptide, receptor titrated; 25°C, pH 7.8; fit of all replicate titrations; X+number in a cell = highest concentration (nM) measured with no binding detected, given here as >; SPNS1 fit to raw fluorescence; read-out: Best-fit KD, Bcl-w
Experimental: Peptides were purified by reverse-phase HPLC using a C18 column and a linear water/acetonitrile gradient. We re-analyzed the purified peptide by mass spectrometry if there was not a single well-defined peak in HPLC chromatogram. Fluorescence polarization (FP) assays were done at 25°C in assay buffer (20 mM NaPO4, 50 mM NaCl, 1 mM EDTA, 0.001% Triton X (v/v), pH 7.8). […] Anisotropy was measured using a Spectramax M5 plate reader from Molecular Devices. […]
No end group written: not given here.
experimentalEndpoint: Kd (nM)

Here is how some substances turned out for Kd.
{"substance": "AIRPRAVELRHLADDFINGNKKK-NH2 [MCF2L2]", "systemUnderTest": "Bcl-w (Homo sapiens, UniProt Q92843, Q133R)", "unitsLabel": "nM", "Kd": 1120}
{"substance": "SYMVLAPVFGYLGDRYNRKYLMA-NH2 [SPNS1]", "systemUnderTest": "Bcl-w (Homo sapiens, UniProt Q92843, Q133R)", "unitsLabel": "nM", "Kd": 871}
{"substance": "RVEQMAIQIKEVGDRVNYIKRSL-NH2 [TRPM7]", "systemUnderTest": "Bcl-w (Homo sapiens, UniProt Q92843, Q133R)", "unitsLabel": "nM", "Kd": 2490}

[A] GSGAWGLLLRRVGDDVLVHLLAR-NH2 [TERT]
[B] PILENPEILRKTADDFLNRIALT-NH2 [CCH]
Inquiry: When A and B are compared, which has the higher number for Kd? Refer to your chosen item by its label in the answer.
Reply text: B
(B: 1920 nM, A: 992 nM)

[a] LSDGLPVHLANIADELTQKKKMF-NH2 [AGBL2]
[b] LRLFLAQRLRWLADSAPASRATA-NH2 [NBEAL2]
[c] SKFVILSAHKLVFIGDTLSRQAKAAD-NH2 [BCAR1]
[d] FIQSLAAMLKQYADKLEFMHILT-NH2 [CASP3]
Inquiry: Provide the items ranked by increasing Kd. // list labels; follow requested order
Reply text: b, d, c, a
